Target: PKACα (PRKACA) (Homo sapiens, UniProt P17612)
Property Measured: IC50

Cc1cc(C#N)cc2c1CCN2S(=O)(=O)c1cccc2c(=O)[nH]ccc12 [Example 18]	> 10 µM
O=c1[nH]ccc2c(S(=O)(=O)N3CCc4c3cccc4C(F)(F)F)cccc12 [Example 8]	> 10 µM
N#Cc1cc(N)c2c(c1)N(S(=O)(=O)c1cccc3c(=O)[nH]ccc13)CC2 [Example 31]	1 to 10 µM

Ask: Form: Entry = N#Cc1cnc2c(c1)N(S(=O)(=O)c1cccc3c(=O)[nH]ccc13)CC2 [Example 38] | System = PKACα (PRKACA) (Homo sapiens, UniProt P17612) | IC50 = ____
Reply: > 10 µM

Each recorded value in this set is attributed to patent US11912719B2.
